Values compiled from patent US20040106663A1.

Test system: logarithmic phase C. albicans (MC295) containing HWP1-lacZ
Assay: microbe, parasite or virus in culture
Type: cell-based
Conditions: Candida albicans, read-out: C. albicans LOG IC50, logarithmic phase growth invasion assay (converted)
measured property: IC50 (nM)
# number only, unit nM dropped from output

{"smiles text": "CCCCCCc1ccc(S(=O)(=O)Nc2cc(C)on2)cc1", "measured number": 9.9}
{"smiles text": "Cc1cc(NS(=O)(=O)c2ccc(OCC3CC3)cc2)no1", "measured number": 51}
{"smiles text": "Cc1cc(NS(=O)(=O)c2ccc(N3CCCC3)cc2)no1", "measured number": 91}
{"smiles text": "CCc1ccc(S(=O)(=O)Nc2cc(C)on2)cc1", "measured number": 1610}

Proceed to the following item.
// query IC50 value for entry Cc1cc(NS(=O)(=O)c2ccc(OC(F)(F)F)cc2)no1
10700

* * *

Test system: HepG2 human hepatoma cells
Conditions: 4 h
Below, each of the molecules is paired with its reported AFDD Mammalian Cytotoxicity LD50 value.

Known results for molecules:
{"molecule": "CCCNc1ccc(S(=O)(=O)Nc2cc(C)on2)cc1 [drawing 266]", "assayed system": "HepG2 human hepatoma cells", "measured property": "AFDD Mammalian Cytotoxicity LD50", "result": ">1000 µM"}
{"molecule": "Cc1cc(NS(=O)(=O)c2ccc(-c3ccccc3)cc2)no1", "assayed system": "HepG2 human hepatoma cells", "measured property": "AFDD Mammalian Cytotoxicity LD50", "result": ">1000 µM"}
{"molecule": "Cc1cc(NS(=O)(=O)c2ccc(-c3ccc(F)cc3F)cc2)no1 [drawing 258]", "assayed system": "HepG2 human hepatoma cells", "measured property": "AFDD Mammalian Cytotoxicity LD50", "result": ">1000 µM"}

Need AFDD Mammalian Cytotoxicity LD50 of CCCCc1ccc(S(=O)(=O)Nc2cc(C)on2)cc1 [drawing 232] , thanks.
>1000 µM

For the molecule Cc1cc(NS(=O)(=O)c2ccc(-c3ccc(F)c(C)c3)cc2)no1 , what AFDD Mammalian Cytotoxicity LD50 is on record?
601.4 µM

I'd like to know its AFDD Mammalian Cytotoxicity LD50. The molecule in question is Cc1cc(NS(=O)(=O)c2ccc(C(C)(C)C)cc2)no1
>1000 µM

// lookup AFDD Mammalian Cytotoxicity LD50 for Cc1cc(NS(=O)(=O)c2ccc(OC(F)(F)F)cc2)no1
>1000 µM

Any idea what AFDD Mammalian Cytotoxicity LD50 was measured for Cc1cc(NS(=O)(=O)c2ccc(CC3CCCC3)cc2)no1 ?
660.9 µM

Reported AFDD Mammalian Cytotoxicity LD50 for CCCCOc1ccc(S(=O)(=O)Nc2cc(C)on2)cc1 : what is it?
>1000 µM

Look up AFDD Mammalian Cytotoxicity LD50: CCc1ccc(S(=O)(=O)Nc2cc(C)on2)cc1
>1000 µM

# lookup: AFDD Mammalian Cytotoxicity LD50 of Cc1cc(NS(=O)(=O)c2ccc(-c3ccc4c(c3)OCO4)cc2)no1
>1000 µM

Looking for the measured AFDD Mammalian Cytotoxicity LD50 of Cc1cc(NS(=O)(=O)c2ccc(-c3ccc(F)cc3)cc2)no1 , can you help?
983.2 µM

* * *

Test system: logarithmic phase C. albicans (MC295) containing HWP1-lacZ
Experiment: microbe, parasite or virus in culture
Type: cell-based
Conditions: Candida albicans, read-out: C. albicans LOG IC50, logarithmic phase growth invasion assay (converted)
measured property: IC50 (nM)
Note: unit nM is implicit; provide only the numeric part.

{"compound": "Cc1cc(NS(=O)(=O)c2ccc(-c3sccc3C)cc2)no1", "assayed system": "logarithmic phase C. albicans (MC295) containing HWP1-lacZ", "IC50 / nM": 320}

Requested field: IC50. Item: Cc1cc(NS(=O)(=O)c2ccc(-c3ccc(F)c(F)c3)cc2)no1
1100

Can you share its IC50? I mean this compound: Cc1ccc(-c2ccc(S(=O)(=O)Nc3cc(C)on3)cc2)cc1
41

Please report the recorded IC50 for Cc1cc(NS(=O)(=O)c2ccc(-c3ccccc3C)cc2)no1 .
56

* * *

System: logarithmic phase C. albicans (MC295) containing HWP1-lacZ
Assay: microbe, parasite or virus in culture
Format: cell-based
Conditions: Candida albicans, read-out: C. albicans LOG IC50, logarithmic phase growth invasion assay (converted)
measured property: IC50 (nM)
Write the number in nM without appending the unit.

{"smiles text": "CCCN(CCC)c1ccc(S(=O)(=O)Nc2cc(C)on2)cc1", "endpoint unit": "nM", "measured number": 2790}
{"smiles text": "Cc1cc(NS(=O)(=O)c2ccc(OC(C)C)cc2)no1", "endpoint unit": "nM", "measured number": 3600}

Param item = Cc1cc(NS(=O)(=O)c2ccc(-c3ccc(C)s3)cc2)no1 ; retrieve measured IC50.
50

* * *

Measured AFDD Mammalian Cytotoxicity LD50, listed per entry for reference.
Test system: HepG2 human hepatoma cells
Settings: 4 h

Returns the measured AFDD Mammalian Cytotoxicity LD50 for the input compound. Input: Cc1cc(NS(=O)(=O)c2ccc(-c3ccc(F)cc3)cc2C)no1
648.5 µM

Requested read-out: AFDD Mammalian Cytotoxicity LD50. Entry: Cc1cc(NS(=O)(=O)c2ccc(-c3ccco3)cc2)no1
>1000 µM

Which AFDD Mammalian Cytotoxicity LD50 is reported for this compound? Cc1ccc(-c2ccc(S(=O)(=O)Nc3cc(C)on3)cc2)cc1
>1000 µM

Could you share which AFDD Mammalian Cytotoxicity LD50 value was measured for CCCCCCc1ccc(S(=O)(=O)Nc2cc(C)on2)cc1 ?
449.1 µM

* * *

Tested on: logarithmic phase C. albicans (MC295) containing HWP1-lacZ
Test: microbe, parasite or virus in culture
Format: cell-based
Conditions: Candida albicans, read-out: C. albicans LOG IC50, logarithmic phase growth invasion assay (converted)
IC50 vs 400 nM: less than gives condition met; not less than gives condition not met.

Example entries and their recorded answers appear below.
{"compound": "CCCNc1ccc(S(=O)(=O)Nc2cc(C)on2)cc1 [drawing 266]", "category label": "condition met"}
{"compound": "Cc1cc(NS(=O)(=O)c2ccc(C(C)(C)C)cc2)no1", "category label": "condition not met"}
{"compound": "Cc1cc(NS(=O)(=O)c2ccc(-c3ccc4c(c3)OCO4)cc2)no1", "category label": "condition not met"}
{"compound": "Cc1cc(NS(=O)(=O)c2ccc(-c3cc(Cl)cc(Cl)c3)cc2)no1", "category label": "condition not met"}

Moving on to the next compound.
Strictly below 400 nM: is that where IC50 of Cc1cc(NS(=O)(=O)c2ccc(C3CCCC3)cc2)no1 sits?
condition met
